Would you mind telling me the reported GI50 of each entry?
// return numeric value only (unit: µM, not printed)

// map Nc1ncc(C=O)c(NCC2(CO)CCC2)n1 to recorded GI50 (system: HCT-15)
71.1

Give recorded GI50 with HCT-15 for the following compound: COc1ccc(C2CC(C)(O)Oc3cc4c(cc32)OCO4)cc1 (stereo unspecified)
23.8

Identify the measured GI50 of COC(=O)/C(C=O)=C/Sc1ccccc1 for HCT-15.
22.6

Checklist item: GI50 tested on HCT-15, entry Cc1ccc(C2C(Cl)C(=O)N2NC(=O)c2ccc(N)cc2)cc1 (stereo unspecified) , value?
15.7

Lookup: GI50 / HCT-15 / O=C1c2ccccc2C2(c3ccc(Cl)cc3)NCc3ccccc3CN12 (stereo unspecified)
21.9

====

Give GI50 for every item shown.
# Test system: HOP-18
# EXPERIMENT_NOTES: NCI tumour cell line growth inhibition, 48 h
Calls of active or inactive are those of the source. Rule as the data show it: active = GI50 up to about 1.1 µM and inactive = higher.

For the compound shown here, COc1ccc(/C(Cl)=C(\C=O)c2ccc(Cl)cc2)cc1 , give the reported GI50.
30.3 µM (inactive)

So what does the record say about GI50 for CC(=O)c1sc(Nc2nnc(-c3ccc(-c4nnc(Nc5nc(C)c(C(C)=O)s5)o4)cc3)o2)nc1C ?
> 100 µM (inactive)

# GI50 lookup, item CC1=NOC(=O)/C1=C/c1ccc([N+](=O)[O-])cc1
> 100 µM (inactive)

# input compound: CCCCc1nccc2c(C)c3[nH]c4ccccc4c3cc12 ; wanted: its GI50
0.486 µM (active)

Quick check: GI50 of COC(=O)C1=C(C[S+]([O-])c2ccccc2[N+](=O)[O-])ON(C)C1c1ccccc1 (stereo unspecified) ?
52.2 µM (inactive)

Return reported GI50; argument: CC/C(SC)=[N+](\C)[O-]
> 100 µM (inactive)

Give the measured GI50 of Cc1ccc2nc(NC(=O)C(=O)C(C#N)c3nc4ccccc4s3)sc2c1 (stereo unspecified) .
11.6 µM (inactive)

// returns reported GI50 for input CC1=C(O)C(=O)c2cn(C)cc2C1=O
> 100 µM (inactive)

Suppose we examine the compound CC(C)CCC[C@@H](C)C1CCC2[C@@H]3CC=C4C[C@@H](C(=O)NCC[N+](C)(C)CCCS(=O)(=O)[O-])CC[C@]4(C)C3CC[C@@]21C (stereo partly specified) ; what GI50 value has been reported?
17.7 µM (inactive)

Please report the recorded GI50 for FC(F)(F)C1(Br)C(c2ccccc2)=C1c1ccccc1 .
16.5 µM (inactive)

Could you share which GI50 value was measured for CC(C)OP(=O)(OC(C)C)C1=NN(c2ccc([N+](=O)[O-])cc2)C(P(=O)(OC(C)C)OC(C)C)=NN1c1ccc([N+](=O)[O-])cc1 ?
> 100 µM (inactive)

Given the compound C=C1C(=O)OC2/C=C(\C=O)CC/C=C(\C)C(O)C[C@@H]12 (stereo partly specified) , what is its reported GI50?
16.9 µM (inactive)

Which value of GI50 has been reported for Nc1ncn([C@H]2C[C@H](O)[C@@H](CO)O2)c(=O)n1 in the records?
> 99.1 µM (inactive)

For CN(C)CC1CC/C(=C\c2ccc(Cl)cc2)C1=O (stereo unspecified) , what is its reported GI50?
18.2 µM (inactive)

I am curious: what GI50 value has been reported for O=C1C2C3C=CC(C2C(=O)N1CO)C1C2C(=O)N(CO)C(=O)C2C31 (stereo unspecified) ?
43.4 µM (inactive)

Could you tell me which GI50 is on file for CC1OC(=O)C2CC3CCCCC3C(/C=C/C3CCCC(C)N3C)C12 (stereo unspecified) ?
> 100 µM (inactive)

Entry N#CCC(=O)N/N=C(\C(=O)Nc1ccc(Cl)c(Cl)c1)C1CN(c2ccccc2)N=C1N (stereo unspecified) : reported GI50 = ?
> 100 µM (inactive)

Which GI50 is listed for Cc1ccc(S(=O)(=O)Oc2cc(-c3ccccc3)nc3ccccc23)cc1 ?
7.62 µM (inactive)

Requested field: GI50. Item: O=S1OC2(c3ccccc3-c3ccccc32)c2ccccc21 (stereo unspecified)
> 100 µM (inactive)

Suppose we examine the compound COc1ccc(/C=C/C(=O)c2sc(-c3cccnc3)nc2C)cc1 ; what GI50 value has been reported?
45.3 µM (inactive)

// lookup GI50 for CCC12CCC(O)C1N(C)CCC2Sc1ccccc1 (stereo unspecified)
46.7 µM (inactive)

====

Exercise: state measured GI50 for each of the compounds provided.
# System: EKVX
# EXPERIMENT_NOTES: NCI tumour cell line growth inhibition, 48 h
Activity calls are given as the source filed them. Rule as the data show it: active = GI50 up to about 1.1 µM and inactive = higher.

Please give the measured GI50 for this compound: CC(=O)O[C@@H]1CC(C)C2CC2C2=C(C(O)OC2O)[C@@H]1C(C)CCC=C(C)C (stereo partly specified)
40 µM (inactive)

Requested read-out: GI50. Entry: O=C1NC2CCC(C2)C1c1ccccc1 (stereo unspecified)
> 100 µM (inactive)

Which value of GI50 has been reported for CCOc1cc2c(cc1O)C=C[C@@H]1[C@@H]2CC[C@]2(C)[C@@H](O)CC[C@@H]12 in the records?
4.79 µM (inactive)

Entry CC1CC(=O)N2CCCNC2=C1C#N (stereo unspecified) : reported GI50 = ?
> 100 µM (inactive)

If you can, please state the reported GI50 value of Cc1cn(C2OC(CO)C(O)C2F)c(=O)[nH]c1=O (stereo unspecified) .
> 100 µM (inactive)

Returns the measured GI50 for the input compound. Input: O=c1c2cc(Br)ccc2oc2nc3n(c(=O)c12)CCCS3
> 100 µM (inactive)

Dear colleague, I am looking for the recorded GI50 of the following compound: CSc1nc(=O)n(CCC#N)nc1SC
> 100 µM (inactive)

Return reported GI50; argument: CC(/C=C/c1ccc([N+](=O)[O-])o1)=N/N1CC(CN2CCOCC2)OC1=O (stereo unspecified)
30.9 µM (inactive)

What value of measured GI50 is listed for CC(C)[Si]1(C(C)C)OCC2OC3(CO)C(Oc4nc(=O)ccn43)C2O[Si](C(C)C)(C(C)C)O1 (stereo unspecified) ?
17.1 µM (inactive)

Name the reported GI50 value associated with the compound NC1Cc2ccccc2OC1=O (stereo unspecified)
> 100 µM (inactive)

# get_value(readout='GI50', item= CCOC(=O)N(C)C1(c2ccccc2)CCN(CCCC(=O)c2ccc(F)cc2)CC1 )
> 100 µM (inactive)

====

# System: SNB-19
# EXPERIMENT_NOTES: NCI tumour cell line growth inhibition, 48 h
The source made the active and inactive calls. No stated cut-off is given here; in the data, active = GI50 up to about 1.1 µM and inactive = higher.
Hi! Could you answer with just one of these? active, inactive

# outcome recorded in this test, key = Cc1nnc(SCc2nc(C#N)c(C#N)nc2CSc2nnc(C)s2)s1
inactive

Lab log entry: O=c1oc2ccccc2cc1-c1nc2ccccc2c(=O)[nH]1 — outcome as called in the assay?
inactive

// return assay outcome for CC(=O)NNc1nc(C)c(C(/C=C/c2ccc([N+](=O)[O-])cc2)=N/NC(N)=O)s1
inactive

Could you kindly confirm the outcome this assay logged for C[n+]1c2ccccc2c(NC(CCCNC(=N)N)C(=O)O)c2ccccc21 (centres undefined) ?
inactive

// outcome(item) with item = CO/C(=C/C(=O)C(Cl)(Cl)Cl)CC/C(=C\C(=O)C(Cl)(Cl)Cl)OC
inactive

// param item: O=C1NC2CCC(C2)C1c1ccccc1 (centres undefined) ; yields the recorded call
inactive

State the result this test recorded for NCc1ccc(-c2ccc(CN)s2)s1 .
inactive

Returns: the outcome recorded for C[C@]12CC[C@H](O)CC1=CC[C@@H]1[C@@H]2CC[C@]2(C)C(=O)[C@@H](N3CCOCC3)C[C@@H]12 in this assay.
inactive

Status in this test for Nc1ncc2c(n1)-c1ccccc1OC2N1CCCCC1 (centres undefined) ?
inactive

For COc1cccc(C2SC(=N)Nc3c2c(C)nn3C(=O)c2ccccc2O)c1 (centres undefined) , which call appears in the assay record?
inactive

I would be grateful if you could indicate the recorded call for Cc1ccc(S(=O)(=O)Oc2cc(-c3ccccc3)nc3ccccc23)cc1 .
active

For NC1c2c(Br)sc(N3CCCC3)c2C(=O)C1O (centres undefined) , which call appears in the assay record?
inactive

For Cc1c(Cl)cccc1/N=N/C(=O)NNc1cccc(Cl)c1C , which call appears in the assay record?
inactive

Recorded call for C/C=C(/C)c1cnc(CC(C)C)c(=O)[nH]1 ?
inactive

For this compound, state the assay outcome: CC(C)OP(=O)(OC(C)C)/C(=N/Nc1ccc([N+](=O)[O-])cc1)NN
inactive

Per the records of this test, what outcome belongs to CC(C)[Si]1(C(C)C)OCC2OC3(CO)C(Oc4nc(=O)ccn43)C2O[Si](C(C)C)(C(C)C)O1 (centres undefined) ?
inactive

Please indicate how the test categorized O=C(O)c1nc2ccc(Cl)cc2[nH]c1=O .
inactive

For CCCSc1cc(Cl)c(C)cc1S(=O)(=O)n1ccnc1OCCCN(C)C , what call appears in the results of this test?
inactive

Record lookup: outcome of this test for CC1=CC2CC(C)C1(C)CCc1ccoc12 (centres undefined) ?
inactive
